experiment.summary: ATG_CMV_CIS: Attagene CIS-FACTORIAL HepG2 Assay for human CMV (Internal Marker) (AID 2282928);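 further: endpoint acts as a background internal control marker rather than a target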
experimental.conditions: HepG2 CMV promoter reporter, transcription factor profiling; actives raise or lower the signal
The source made the active and inactive calls. How the source made its calls: active means hit-call score of the fitted dose curve at least 0.9, where 1 is the maximum; inactive means score below 0.9.
Give one outcome, nothing more. List: active, inactive

These solved cases illustrate the format of a correct answer.
molecule: CCOP(=S)(OCC)Oc1ccc([N+](=O)[O-])cc1
answer.label: inactive
--
molecule: CCCSP(=O)(OCC)Oc1ccc(Br)cc1Cl (configuration not stated)
answer.label: active
--
molecule: CCCCOC(=O)c1ccccc1C(=O)O
answer.label: inactive
--
molecule: C#CCC1=C(C)C(OC(=O)C2C(C=C(C)C)C2(C)C)CC1=O (configuration not stated)
answer.label: inactive
--
molecule: CNC(=O)Oc1cccc2c1OC(C)(C)O2
answer.label: active

As a next step, examine the molecule that follows.
Entry CNC(=O)ON=C(SC)C(=O)N(C)C : call = ?
inactive
